Reported switch fluorescence ratio is given for each of the following sequences.
- Test system: ATP;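 also: ATP exposure 15 min at 22 °C before imaging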
- test-summary: switch fluorescence ratio, 500 uM ATP over buffer (Cy3 cluster intensity, sum of 5 cycles each) (fold (ratio)); higher = stronger signal-on switching upon ATP binding; sequences stand for … in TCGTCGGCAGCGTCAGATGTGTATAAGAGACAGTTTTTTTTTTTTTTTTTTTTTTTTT…TC
- assay-context: aptamer strand: ATP DNA aptamer (quencher-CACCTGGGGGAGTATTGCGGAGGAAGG + anchor), 100 nM annealed; ATP concentration: 500 uM
Reply: number alone, nothing else.

Specify switch fluorescence ratio for "CCTATGGTAG" and stop.
1.01

Return switch fluorescence ratio (reported value) for this sequence: "GGGATAGGTT"
1.07

Read off the recorded switch fluorescence ratio for "TGAGTAACGG"
1.02

State its switch fluorescence ratio for this sequence: "GGGTAGATGG"
0.97

====

- System: ATP;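 also: ATP exposure 15 min at 22 °C before imaging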
- test-summary: switch fluorescence ratio, 500 uM ATP over buffer (Cy3 cluster intensity, sum of 5 cycles each) (fold (ratio)); higher = stronger signal-on switching upon ATP binding; sequences stand for … in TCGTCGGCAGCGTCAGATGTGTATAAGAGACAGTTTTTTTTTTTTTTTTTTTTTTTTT…TC
- assay-context: aptamer strand: ATP DNA aptamer (quencher-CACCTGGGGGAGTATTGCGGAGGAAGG + anchor), 100 nM annealed; ATP concentration: 500 uM
measurement-type: switch fluorescence ratio
Reply: number alone, nothing else.

TGGTCTTTGT = 1

Find the measured switch fluorescence ratio of "TCATTCCACT" and report it.
1.03

Name the recorded switch fluorescence ratio of the item "TTTGAGTATA" in your answer.
0.992

Return value of switch fluorescence ratio for input "GGGTAGCTCT" , no commentary.
1.06

====

Below, each entry is listed with its recorded switch fluorescence ratio.
- System: ATP;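 also: ATP exposure 15 min at 22 °C before imaging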
- test-summary: switch fluorescence ratio, 500 uM ATP over buffer (Cy3 cluster intensity, sum of 5 cycles each) (fold (ratio)); higher = stronger signal-on switching upon ATP binding; sequences stand for … in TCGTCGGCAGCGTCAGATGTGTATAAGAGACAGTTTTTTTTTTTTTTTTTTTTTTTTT…TC
- assay-context: aptamer strand: ATP DNA aptamer (quencher-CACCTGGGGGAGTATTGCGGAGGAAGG + anchor), 100 nM annealed; ATP concentration: 500 uM
Give the figure by itself; no unit, no explanation.

Example entries begin here.
TCGGGCAGGT = 1.06
TTCGGCGACG = 1
GGGGGTTCCC = 0.983
CAAGGACTGG = 0.997
ACGGTTGATG = 0.986
ATAAGGATGG = 0.979

Please indicate switch fluorescence ratio recorded for "AGGCCGGCTG"
0.96

Provide only the value of recorded switch fluorescence ratio for "AACTTTTATT"
1.01

Fill in reported switch fluorescence ratio for this entry: "ATTGAAAGAG"
1.21

For the sequence "GGCGCAGCAA" , give its reported switch fluorescence ratio.
1.47

# return recorded switch fluorescence ratio for input "CGTGCTGGAA"
0.975

Give the value of switch fluorescence ratio reported for the following: "GAGTCCAGGG"
1.21

Return switch fluorescence ratio for the following sequence: "CCTTTTGTTA"
0.989

Given the sequence "AAAACTTAGG" , write its reported switch fluorescence ratio.
0.978

Dear colleague, please send me the reported switch fluorescence ratio for "GAAGCTTTTT" when you can.
1

Dear colleague, please send me the reported switch fluorescence ratio for "TTAGTTATGT" when you can.
0.992

Provide only the value of recorded switch fluorescence ratio for "CCGCCTTGGG"
1.09

Consider the sequence "AAGTTTATCA" and give its recorded switch fluorescence ratio.
1

Please report the measured switch fluorescence ratio for "CAAGTTATAA"
0.994

For the sequence "CGTAGGAAGA" , give its measured switch fluorescence ratio value.
1.02

Return value of switch fluorescence ratio for input "GCGGGTTTTC" , no commentary.
1.03

Please look at this sequence and report its switch fluorescence ratio: "TAGCCTGGAC"
1.1

# return recorded switch fluorescence ratio for input "GATGCAAGGG"
1.83

Output measured switch fluorescence ratio for this item: "CGGGAAAGTC"
0.996

Please list switch fluorescence ratio recorded for the sequence "CTTAATGGGG"
0.973

====

- Test system: ATP;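 also: ATP exposure 15 min at 22 °C before imaging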
- test-summary: switch fluorescence ratio, 500 uM ATP over buffer (Cy3 cluster intensity, sum of 5 cycles each) (fold (ratio)); higher = stronger signal-on switching upon ATP binding; sequences stand for … in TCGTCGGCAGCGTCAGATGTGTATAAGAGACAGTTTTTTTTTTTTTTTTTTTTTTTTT…TC
- assay-context: aptamer strand: ATP DNA aptamer (quencher-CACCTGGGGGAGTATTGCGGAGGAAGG + anchor), 100 nM annealed; ATP concentration: 500 uM
measurement-type: switch fluorescence ratio
# respond with the number and nothing more

Worked set:
GGGAAGCGCC = 0.997
ATTTGAGTTA = 1
GGTGTTCTGT = 0.967

# ---- query sequence ----
# return switch fluorescence ratio of "GGGAAATTGT" (system: ATP);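 also: ATP exposure 15 min at 22 °C before imaging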
0.997

====

- System: ATP;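 also: ATP exposure 15 min at 22 °C before imaging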
- test-summary: switch fluorescence ratio, 500 uM ATP over buffer (Cy3 cluster intensity, sum of 5 cycles each) (fold (ratio)); higher = stronger signal-on switching upon ATP binding; sequences stand for … in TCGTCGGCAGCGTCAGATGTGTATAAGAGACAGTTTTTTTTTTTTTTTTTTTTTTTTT…TC
- assay-context: aptamer strand: ATP DNA aptamer (quencher-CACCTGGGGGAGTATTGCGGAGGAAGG + anchor), 100 nM annealed; ATP concentration: 500 uM
Label rule, in plain words: switch fluorescence ratio of 1 and up is fulfilled, under 1 is not fulfilled.

Solved entries (count: 2):
TGAGTGGGTC = fulfilled
GAGAGAATAG = fulfilled

Say whether "GCTAGGGGTT" shows switch fluorescence ratio of 1 or more.
fulfilled

Record "GCGGTTTGAG" ; criterion: switch fluorescence ratio no lower than 1. Met?
not fulfilled

switch fluorescence ratio >= 1 for "GTTTCGCGAC" ?
fulfilled

Could you verify whether the entry "GCGGAAGGTG" shows switch fluorescence ratio of no less than 1?
fulfilled

Textbook exercise: given the entry "AAGTCCTGCC" , state whether its switch fluorescence ratio is greater than or equal to 1.
fulfilled

Could you tell me if the measured switch fluorescence ratio of "GGCTAAGTTT" reaches 1 or more?
not fulfilled

Given the entry "GACTACCCCT" , answer whether its switch fluorescence ratio meets or surpasses 1.
fulfilled

====

- Tested on: ATP;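 also: ATP exposure 15 min at 22 °C before imaging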
- test-summary: switch fluorescence ratio, 500 uM ATP over buffer (Cy3 cluster intensity, sum of 5 cycles each) (fold (ratio)); higher = stronger signal-on switching upon ATP binding; sequences stand for … in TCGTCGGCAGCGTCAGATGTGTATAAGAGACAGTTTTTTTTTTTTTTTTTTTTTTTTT…TC
- assay-context: aptamer strand: ATP DNA aptamer (quencher-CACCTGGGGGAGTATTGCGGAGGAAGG + anchor), 100 nM annealed; ATP concentration: 500 uM
Assign true (1) to entries whose switch fluorescence ratio meets or exceeds 1; assign false (0) to the rest.

Examples from the recorded data:
ATCTATCCAC = true (1)
GAAATGACTT = true (1)
GCTATACGAT = true (1)

Kindly determine if switch fluorescence ratio recorded for "TAGGTTTGGG" is above or exactly 1.
false (0)

Is reported switch fluorescence ratio greater than or equal to 1 here: "CAGAGTGTGG"
false (0)

Decide: is the reported value of switch fluorescence ratio for "CGAGTTAAGC" equal to or greater than 1?
false (0)

Decide: is the reported value of switch fluorescence ratio for "ATGTTTCTGG" equal to or greater than 1?
false (0)

Reported switch fluorescence ratio reaches at least 1 for "GTGGCTATGG" ?
false (0)

Say whether "TTGATGCTCT" shows switch fluorescence ratio of 1 or more.
true (1)

Can "TTTCTTTCGG" be said to have switch fluorescence ratio at or above 1?
true (1)

Does "TTAGGAAATT" have a reported switch fluorescence ratio of at least 1?
true (1)

====

- Tested on: ATP;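 also: ATP exposure 15 min at 22 °C before imaging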
- test-summary: switch fluorescence ratio, 500 uM ATP over buffer (Cy3 cluster intensity, sum of 5 cycles each) (fold (ratio)); higher = stronger signal-on switching upon ATP binding; sequences stand for … in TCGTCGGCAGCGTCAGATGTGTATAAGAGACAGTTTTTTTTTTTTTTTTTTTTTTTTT…TC
- assay-context: aptamer strand: ATP DNA aptamer (quencher-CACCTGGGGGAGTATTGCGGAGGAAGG + anchor), 100 nM annealed; ATP concentration: 500 uM
# maps each entry to its switch fluorescence ratio
Just the number, please.

Fill in switch fluorescence ratio for "TAAAAGCTTT" tested with ATP.
1.02

Report value: switch fluorescence ratio, system: ATP, sequence: "GGTGATAGGA"
0.98

====

- Test system: ATP;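 also: ATP exposure 15 min at 22 °C before imaging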
- test-summary: switch fluorescence ratio, 500 uM ATP over buffer (Cy3 cluster intensity, sum of 5 cycles each) (fold (ratio)); higher = stronger signal-on switching upon ATP binding; sequences stand for … in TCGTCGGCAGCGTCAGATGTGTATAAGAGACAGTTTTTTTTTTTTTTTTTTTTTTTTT…TC
- assay-context: aptamer strand: ATP DNA aptamer (quencher-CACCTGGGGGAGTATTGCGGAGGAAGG + anchor), 100 nM annealed; ATP concentration: 500 uM
switch fluorescence ratio by entry:
The reply should be a number, written without any unit.

Worked set:
TGGGAGGGTG = 1.02
CTTGCGGGGC = 1.03
GGTTGGTATT = 1
TTTTGGTGTT = 1.02
GGGGATTTCT = 0.995

Now consider a different sequence.
Note down switch fluorescence ratio recorded for "AAGGGTTTCT"
1.02
